assay: Cytotoxicity against human SPCA2 cells after 2 days by MTT assay; type: functional, cell-based; settings: SPCA2, 48 h
Classes (IC50): A: < 20 µM; B: ≥ 20 µM and < 30 µM; C: ≥ 30 µM

Would you please look over these solved cases?
O/N=C1/C(c2c[nH]c3ccc(F)cc23)=Nc2ccc(F)cc21; A
CC(=O)Nc1ccc2c(c1)/C(=N\O)C(c1c[nH]c3ccc(NC(C)=O)cc13)=N2; B
Nc1ccc2c(c1)/C(=N\O)C(c1c[nH]c3ccc(N)cc13)=N2; A
COC(=O)c1ccc2c(c1)N=C(c1c[nH]c3cc(C(=O)OC)ccc13)/C2=N/O; B
c1ccc2c(c1)N=C(c1c[nH]c3ccccc13)/C2=N/OCC1CC1; C

Req: # classify by IC50 band: C=CCO/N=C1/C(c2c[nH]c3ccccc23)=Nc2ccccc21
Resp: B

Req: # classify by IC50 band: Cc1cccc2c1/C(=N\O)C(c1c[nH]c3cccc(C)c13)=N2
Resp: C

Req: # classify by IC50 band: Cc1cccc2c1N=C(c1c[nH]c3c(C)cccc13)/C2=N/OCc1cccc(Cl)c1
Resp: A

Req: # classify by IC50 band: O/N=C1/C(c2c[nH]c3ccc(Br)cc23)=Nc2ccc(Br)cc21
Resp: A
